Assay overview: Permeability in human Caco-2 cells
Type: ADME, cell-based
Condition context: read-out: permeability
Experimental readout: Papp (×10⁻⁶ cm/s)
Reply with just the number (in ×10⁻⁶ cm/s).

# Smiles str, Papp (×10⁻⁶ cm/s)
measured = [
    ("CC(C)(C)N1C[C@@H](C(=O)Nc2nccn2Cc2ccc(C(F)(F)F)cc2N2CCC(C(=O)O)CC2)[C@H](c2ccc(F)cc2F)C1", 0.11),
    ("COc1ccc([C@@H]2CN(C3CCCCC3)C[C@@]2(F)C(=O)N2CCC(c3ccc(C(F)(F)F)cc3N3CCC(C(=O)O)CC3)CC2)cc1", 10.9),
    ("COc1ccc([C@@H]2CN(CCO)C[C@@]2(F)C(=O)N2CCC(c3ccc(C(F)(F)F)cc3N3CCC(C(=O)O)CC3)CC2)cc1", 14.6),
]

Now for a further molecule.
[Q] Requested read-out: Papp. Entry: CC(C)(C)N1C[C@@H](c2ccc(F)cc2F)[C@](F)(C(=O)N2CCC(c3ccc(C(F)(F)F)cc3N3CCC(C(=O)O)CC3)CC2)C1
[A] 38.4

----------
Assay overview: AUC (0 to infinity) in cynomolgous monkey at 3 mg/kg, po
Assay type: ADME, organism-based, Macaca fascicularis
Condition context: cynomolgus monkey, in vivo
Experimental readout: AUC(0-inf) (ng·h/mL)
Field: numeric (ng·h/mL). Do not append units.

[Q] Name the recorded AUC(0-inf) for COC[C@H]1CN(C(=O)[C@]2(F)CN(C3CCCC3)C[C@H]2c2ccc(OC)cc2)C[C@@H]1c1ccc(C(F)(F)F)cc1N1CCC(C(=O)O)CC1.O=P(O)(O)O [DERSIMELAGON PHOSPHATE] .
[A] 922

----------
Assay overview: Total clearance in cynomolgous monkey at 1 mg/kg, iv
Type: ADME, organism-based, Macaca fascicularis
Condition context: cynomolgus monkey, in vivo
Experimental readout: clearance (mL/min/kg)
Just the number in mL/min/kg, nothing appended.

[Q] Requested read-out: clearance. Entry: COC[C@H]1CN(C(=O)[C@]2(F)CN(C3CCCC3)C[C@H]2c2ccc(OC)cc2)C[C@@H]1c1ccc(C(F)(F)F)cc1N1CCC(C(=O)O)CC1.O=P(O)(O)O [DERSIMELAGON PHOSPHATE]
[A] 18.3

----------
A collection of compounds and their measured Papp
Assay overview: Permeability in human Caco-2 cells
Type: ADME, cell-based
Condition context: read-out: permeability
Write the numeric value and append its unit.

Solved cases below.
# Smiles str, Papp
data = [
    ("COc1ccc([C@@H]2CN(C)C[C@@]2(F)C(=O)N2CCC(c3ccc(C(F)(F)F)cc3N3CCC(C(=O)O)CC3)CC2)cc1", "32 ×10⁻⁶ cm/s"),
    ("Cc1ccc([C@@H]2CN(C(C)(C)C)C[C@@]2(F)C(=O)N2CCC(c3ccc(C(F)(F)F)cc3N3CCC(C(=O)O)CC3)CC2)cc1", "12.9 ×10⁻⁶ cm/s"),
    ("COC[C@H]1CN(C(=O)[C@]2(F)CN(C3CCCC3)C[C@H]2c2ccc(OC)cc2)C[C@@H]1c1ccc(C(F)(F)F)cc1N1CCC(C(=O)O)CC1", "16.6 ×10⁻⁶ cm/s"),
    ("COc1ccc([C@@H]2CN(C3CCCC3)C[C@@]2(F)C(=O)N2CC[C@@H](c3ccc(C(F)(F)F)cc3N3CCC(C(=O)O)CC3)C2)cc1", "29.2 ×10⁻⁶ cm/s"),
]

[Q] Query: Papp; subject: CC(C)(C)N1C[C@@H](c2ccc(F)cc2)[C@](F)(C(=O)N2CCC(c3ccc(C(F)(F)F)cc3N3CCC(C(=O)O)CC3)CC2)C1
[A] 22.6 ×10⁻⁶ cm/s

[Q] Again, but for COc1ccc([C@@H]2CN(C(C)(C)C)C[C@@]2(F)C(=O)N2CCC(c3ccc(C(F)(F)F)cc3N3CCC(C(=O)O)CC3)CC2)cc1
[A] 30 ×10⁻⁶ cm/s

[Q] CC(C)(C)N1C[C@@H](c2ccc(F)cc2F)[C@](F)(C(=O)Nc2nccn2Cc2ccc(C(F)(F)F)cc2N2CCC(C(=O)O)CC2)C1 , same question.
[A] 1.7 ×10⁻⁶ cm/s

[Q] // same read-out, input: CC(C)(C)N1C[C@@H](c2ccc(C(F)(F)F)cc2)[C@](F)(C(=O)N2CCC(c3ccc(C(F)(F)F)cc3N3CCC(C(=O)O)CC3)CC2)C1
[A] 8.2 ×10⁻⁶ cm/s
